A set of molecules tested on Sodium-dependent noradrenaline transporter (Homo sapiens, UniProt P23975), with measured AC50:

molecule	AC50
COc1ccc(C(=O)Nc2ccccc2CCC2CCCCN2C)cc1 (stereo not drawn) [ENCAINIDE]	> 30 µM
Cc1ccccc1OCC(O)CO (stereo not drawn)	> 30 µM
CCN(CC)CCc1nc(-c2ccccc2)no1	> 30 µM

query: Given the molecule NC1=NCC2c3ccccc3Cc3ccccc3N12 (stereo not drawn) [EPINASTINE] , what is its reported AC50?
result: 4.58 µM

query: Please give the result for CCCCOC(=O)C(=O)[C@H]1[C@H](C)C[C@H]2[C@@H]3C[C@H](F)C4=CC(=O)C=C[C@]4(C)[C@H]3[C@@H](O)C[C@@]21C too.
result: 29.5 µM

query: Cc1oc(=O)oc1CN1CCN(c2cc3c(cc2F)c(=O)c(C(=O)O)c2n3C(C)S2)CC1 (stereo not drawn) , same question.
result: > 30 µM

query: And COc1cc2nc(N3CCN(C(=O)c4ccco4)CC3)nc(N)c2cc1OC ?
result: > 30 µM

query: # repeat for OB1OCc2cc(F)ccc21
result: > 30 µM

---

Listed next: entries and their corresponding AC50.
# tgt: 5-hydroxytryptamine receptor 2A (Homo sapiens, UniProt P28223)
# Sequence (P28223 whole entry): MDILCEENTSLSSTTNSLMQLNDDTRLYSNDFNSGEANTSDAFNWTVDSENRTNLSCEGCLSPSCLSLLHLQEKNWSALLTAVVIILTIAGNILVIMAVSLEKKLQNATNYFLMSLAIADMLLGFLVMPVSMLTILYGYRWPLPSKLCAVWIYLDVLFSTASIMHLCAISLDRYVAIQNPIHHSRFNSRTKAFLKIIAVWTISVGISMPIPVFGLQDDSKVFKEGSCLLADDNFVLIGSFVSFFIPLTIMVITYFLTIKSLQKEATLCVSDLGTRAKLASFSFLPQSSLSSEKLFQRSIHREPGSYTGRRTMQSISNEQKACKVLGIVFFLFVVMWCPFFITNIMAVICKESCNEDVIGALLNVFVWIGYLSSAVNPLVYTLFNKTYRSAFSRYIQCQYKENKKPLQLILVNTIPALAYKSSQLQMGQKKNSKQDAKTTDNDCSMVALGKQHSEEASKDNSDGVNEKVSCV
# Format: functional, cell-based

These recorded examples may help you get a feel for the data.
> print(dat)
                                   molecule  recorded.result
1  CN1C(=O)C(O)N=C(c2ccccc2)c2cc(Cl)ccc21 (centres undefined)          > 30 µM
2  O=C(O)C1=C(CSc2nnnn2CS(=O)(=O)O)CS[C@@H]2[C@H](NC(=O)[C@H](O)c3ccccc3)C(=O)N12          > 30 µM
3  COc1ccc2c3c1O[C@H]1[C@@H](O)CC[C@H]4[C@@H](C2)N(C)CC[C@@]341 [DIHYDROCODEINE]          > 30 µM
4  Cc1cc(O)c(C(=O)N[C@@H](C(=O)N[C@@H]2C(=O)N3C(C(=O)O)=C(CSc4nnnn4C)CS[C@H]23)c2ccc(O)cc2)cn1 [CEFPIRAMIDE]          > 30 µM
5  C[C@H]1COc2c(C3(N)CC3)c(F)cc3c(=O)c(C(=O)O)cn1c23          > 10 µM
6  CCC1(CC)C(=O)NCC(C)C1=O (centres undefined)          > 30 µM

query: Item NCC(=O)CCC(=O)O has what recorded AC50?
result: > 30 µM

query: Let us now turn to C=CCN1CCCC1CNC(=O)c1cc(S(N)(=O)=O)cc(OC)c1OC (centres undefined) [VERALIPRIDE]
result: 24 µM

query: Ok, now O=C(O)C[C@H](O)C[C@H](O)/C=C/c1c(C2CC2)nc2ccccc2c1-c1ccc(F)cc1
result: > 30 µM

---

As an illustration, consider measured AC50 for compounds on Adenosine receptor A3 (Homo sapiens).
Sequence (P0DMS8 whole entry): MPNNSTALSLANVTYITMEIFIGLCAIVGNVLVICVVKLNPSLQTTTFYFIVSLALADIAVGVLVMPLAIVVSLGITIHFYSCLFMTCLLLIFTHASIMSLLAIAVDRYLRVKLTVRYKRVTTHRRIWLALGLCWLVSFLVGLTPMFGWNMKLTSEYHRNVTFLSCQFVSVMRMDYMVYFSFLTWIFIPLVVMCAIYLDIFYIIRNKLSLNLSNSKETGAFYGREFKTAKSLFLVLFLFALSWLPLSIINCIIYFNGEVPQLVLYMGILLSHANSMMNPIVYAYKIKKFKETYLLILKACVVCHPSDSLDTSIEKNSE

compound	recorded-result
C[N+](C)(C)CCO	> 30 µM
OC(CCN1CCCCC1)(c1ccccc1)c1ccccc1	> 30 µM
Nc1ccc2cc3ccc(N)cc3nc2c1	10.2 µM
CCC(C)(C)c1ccc(CC(C)CN2C[C@@H](C)O[C@@H](C)C2)cc1 (stereo not given in full)	12.1 µM
NCC(CC(=O)O)c1ccc(Cl)cc1 (stereo not given)	> 30 µM
Cc1cc(NS(=O)(=O)c2ccc(N)cc2)nc(C)n1	> 30 µM
CC[C@@H](C(N)=O)N1CCCC1=O	> 30 µM
OCCN1C[C@H](O)[C@@H](O)[C@H](O)[C@H]1CO	> 30 µM

query: Entry CCC(=O)NCC[C@@H]1CCc2ccc3c(c21)CCO3 has what AC50?
result: > 30 µM

query: What about CCCNC(C)C(=O)Nc1c(C)csc1C(=O)OC (stereo not given) ?
result: > 30 µM

query: Also need CC(C)COC(=O)OCN1C(=O)CN(CCN2CC(=O)N(COC(=O)OCC(C)C)C(=O)C2)CC1=O , thanks.
result: > 30 µM

query: Same again, this time with CC(C)(C)NC[C@H](O)COc1ccccc1C1CCCC1
result: > 30 µM

query: Try this compound too: COc1cc2c3cc1Oc1cc(ccc1O)C[C@@H]1c4c(cc(OC)c(O)c4Oc4ccc(cc4)C[C@@H]3N(C)CC2)CC[N+]1(C)C
result: > 30 µM
